Where do these numbers come from? They come from PubChem BioAssay (NCI).

Experiment: NCI Yeast Anticancer Drug Screen. Data for the mlh1 strain (AID 171);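 also: 0% = growth of vehicle-treated control cultures of the same strain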
Conditions: S. cerevisiae mlh1 strain growth inhibition; at 11.0 µM; stronger effect = higher value
The panel holds about 79,000 compounds, 15% with a hit somewhere; the sample as a whole holds those more often.
Listed next: entries and their corresponding growth inhibition.
recorded metric: growth inhibition (%)

{"compound": "C/C=C/SC(=Nc1ccccc1)Nc1ccccc1", "val": -6}
{"compound": "Cc1cc(NCCCCCCCCNc2cc(C)nc3cc(N)ccc23)c2ccc(N)cc2n1", "val": 92}
{"compound": "C[C@@](O)(/C=C/[C@H]1CC=CC(=O)O1)[C@@H](C[C@@H](O)\\C=C/C=C\\C=C\\CO)OP(=O)(O)O", "val": 34}
{"compound": "CCOC(=O)C(C(=O)OCC)=P(c1ccccc1)(c1ccccc1)c1ccccc1", "val": 0}
{"compound": "COc1cc([C@@H]2c3cc4c(cc3[C@@H](Nc3ccc(NC(=O)c5cc([N+](=O)[O-])cn5C)cc3)[C@H]3COC(=O)[C@H]23)OCO4)cc(OC)c1O", "val": 22}
{"compound": "Cc1nc2c(Br)cc(Br)cc2c(=O)n1-c1ccccc1NC1OCC(O)C(O)C1O (stereo not given)", "val": 12}
{"compound": "COc1cc(C2c3cc4c(cc3OC(OC(C)=O)C2C)OCO4)cc(OC)c1OC (stereo not given)", "val": -2}
{"compound": "COc1ccc(/C=C/C(=O)c2ccccc2)cc1OC", "val": 17}
{"compound": "O=Cc1ccc2c(c1)C(=O)c1ccccc1C2=O", "val": 10}
{"compound": "O=C(/C=C\\c1cccc(C(F)(F)F)c1)c1ccccc1", "val": -2}
{"compound": "CCN(CC)Cc1cc(Nc2c3ccccc3nc3c2[nH]c2ccccc23)cc(CN(CC)CC)c1O", "val": 1}
{"compound": "C(=Nc1ccc(-c2cc(-c3ccccc3)nc3ccc4ccccc4c23)cc1)c1ccccc1", "val": 9}
{"compound": "Cc1cccc(C(C)(C)C)c1NC(=O)C(C#N)C1=C(Cl)C(=O)c2ccccc2C1=O (stereo not given)", "val": 56}
{"compound": "Cc1cc(=O)oc2c(C)c3occc(=O)c3cc12", "val": 2}
{"compound": "CCOC(=O)CC1(C(=O)OCC)c2[nH]c3ccccc3c2CCN1Cc1ccccc1 (stereo not given)", "val": -2}
{"compound": "S=C1SCN(C2CCCCC2)CN1C1CCCCC1", "val": -31}
{"compound": "C=C(Cl)COC(=O)Nc1cccc(Cl)c1", "val": 1}
{"compound": "CN1CCN(C(=O)/C=C/C(=O)c2ccccc2)CC1", "val": 35}
{"compound": "COc1ccc2[nH]cc([C@@H]3C4CCC(C4)[C@H]3NCc3cccc(CN[C@H]4C5CCC(C5)[C@@H]4c4c[nH]c5ccc(OC)cc45)c3)c2c1", "val": -60}
{"compound": "Oc1ccc(-c2nc(-c3ccc(F)cc3)c(-c3ccc4ccccc4n3)[nH]2)cc1", "val": 36}

====

Test: NCI Yeast Anticancer Drug Screen. Data for the rad50EPP+ strain (AID 151);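 also: 0% = growth of vehicle-treated control cultures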
Details: S. cerevisiae rad50 mutant strain, at 1.2 µM, stronger effect = higher value
The panel holds about 79,000 compounds, 15% with a hit somewhere; the sample as a whole holds those more often.

{"compound": "CC(C)(CCCCC(C)(C)[N+](C)(C)C)[N+](C)(C)C", "growth inhibition / %": -3}
{"compound": "CC(C)(C)[Si](C)(C)OCC1CCC(n2cnc3c(NC(=O)c4ccccc4)ncnc32)O1 (stereo unspecified)", "growth inhibition / %": -3}
{"compound": "O=C(CC(=O)n1nc(-c2ccccc2)c(N=Nc2ccc(Cl)cc2)c1-c1ccccc1)Nc1cccc(Cl)c1", "growth inhibition / %": 1}
{"compound": "S=c1sc2c(s1)SCCS2", "growth inhibition / %": 2}
{"compound": "Cc1ccc(Sc2ccccc2N)cc1", "growth inhibition / %": 8}
{"compound": "O=C1c2ccccc2C(=O)c2cc(CCl)ccc21", "growth inhibition / %": 27}
{"compound": "COc1cc2ccnc(-c3c4ccccc4c(N)c4c(OC)c(OC)ccc34)c2cc1OC", "growth inhibition / %": 0}
{"compound": "C=C(Cl)COC(=O)Nc1cccc(Cl)c1", "growth inhibition / %": 7}
{"compound": "COc1ccc(/C=C/c2sc3ccccc3[n+]2CCCCI)cc1OC", "growth inhibition / %": -5}
{"compound": "CC(C)(C)c1ccc(NS(=O)(=O)c2ccc(N)cc2)cc1", "growth inhibition / %": 4}
{"compound": "Cc1cccc2c1nc1ccc(Cl)cc1[n+]2C", "growth inhibition / %": -4}
{"compound": "O=c1ccc2ccccc2c2ccccc12", "growth inhibition / %": -4}
{"compound": "COc1ccc2[nH]cc([C@@H]3C4CCC(C4)[C@H]3NCc3cccc(CN[C@H]4C5CCC(C5)[C@@H]4c4c[nH]c5ccc(OC)cc45)c3)c2c1", "growth inhibition / %": -19}
{"compound": "O=[N+]([O-])c1cc(F)c(F)cc1Sc1cc(F)c(F)cc1[N+](=O)[O-]", "growth inhibition / %": 30}
{"compound": "O=C1c2cccnc2C(=O)C2C3C=CC(C3)C12 (stereo unspecified)", "growth inhibition / %": 30}
{"compound": "NC(=O)c1c([N+](=O)[O-])cc(C(F)(F)F)cc1[N+](=O)[O-]", "growth inhibition / %": 1}
{"compound": "Cc1ccc(CC2(OCCN(C)C)CCC(C(C)(C)C)CC2)cc1 (stereo unspecified)", "growth inhibition / %": -4}
{"compound": "COc1cc(/C=C2\\NC(=O)N(/C=C3\\C(=O)Oc4ccccc4C3=O)C2=O)ccc1O", "growth inhibition / %": -1}
{"compound": "O=C(Oc1ccc2c(c1)CN(Cc1ccccc1)CO2)c1ccccc1", "growth inhibition / %": -4}
{"compound": "CCCCCCCCCCCC(O)S(=O)(=O)O (stereo unspecified)", "growth inhibition / %": 7}
{"compound": "CCN(CC)CCNc1ccc([N+](=O)[O-])c2nc3ccccc3c(N)c12", "growth inhibition / %": -14}

====

Assay: NCI Yeast Anticancer Drug Screen. Data for the rad52 strain (AID 147);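 also: 0% = growth of vehicle-treated control cultures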
Conditions: S. cerevisiae rad52 mutant growth inhibition; at 1.2 µM; stronger effect = higher value
Compounds without any hit were thinned out: in the full panel of roughly 79,000, 15% have a hit. Activity calls are given as the source filed them. No stated cut-off is given here; in the data, active means growth inhibition above about 70%; inactive means the rest.

{"smiles entry": "O=C(/C=C/c1cc(Cl)cc(Cl)c1O)c1cccc(O)c1", "growth inhibition": "37% (inactive)"}
{"smiles entry": "O=[N+]([O-])c1ccc2c(c1)/C(=N/N=C1c3ccccc3Cc3ccccc31)c1cc([N+](=O)[O-])cc([N+](=O)[O-])c1-2", "growth inhibition": "9% (inactive)"}
{"smiles entry": "CCCCc1ccc(-n2c(C)c(COC(=O)NC)c(COC(=O)NC)c2C)cc1", "growth inhibition": "-40% (inactive)"}
{"smiles entry": "Cc1cc(O)c(C(C)C)cc1C1(c2cc(C(C)C)c(O)cc2C)OC(=O)c2ccccc21", "growth inhibition": "-4% (inactive)"}
{"smiles entry": "COc1ccc(N=CN(C)C)c(C)c1", "growth inhibition": "-24% (inactive)"}

====

Listed next: entries and their corresponding growth inhibition.
Test: NCI Yeast Anticancer Drug Screen. Data for the mlh1 rad18 strain (AID 175)
Conditions: S. cerevisiae mlh1 rad18 strain growth inhibition; at 5.0 µM (retest, dose inferred, filed as 0.5); stronger effect = higher value
The panel holds about 79,000 compounds, 15% with a hit somewhere; the sample as a whole holds those more often.
recorded metric: growth inhibition (%)

{"compound": "O=C(c1ccc([N+](=O)[O-])cc1)C1N=NCC1c1ccccc1 (stereo unspecified)", "recorded metric": "growth inhibition", "reading unit": "%", "val": -3}
{"compound": "O=C(NCCCl)Sc1ccc(Cl)cc1", "recorded metric": "growth inhibition", "reading unit": "%", "val": -141}
{"compound": "NC1=NNC2(C(N)=N1)c1ccccc1-c1ccccc12", "recorded metric": "growth inhibition", "reading unit": "%", "val": -25}
{"compound": "CC(=O)Nc1ccc2c(c1)-c1ccccc1C2=O", "recorded metric": "growth inhibition", "reading unit": "%", "val": 1}
{"compound": "O=C1N=C2SC=C(NC(=S)Nc3ccccc3)N2NC12c1ccccc1-c1ccccc12", "recorded metric": "growth inhibition", "reading unit": "%", "val": -10}
{"compound": "CC1CC[C@]2(C(=O)O)CCC3(C)C(=CC(=O)C4[C@@]5(C)CCC(=O)C(C)(C)C5CC[C@]43C)[C@@H]2[C@H]1C (stereo partly specified)", "recorded metric": "growth inhibition", "reading unit": "%", "val": 35}
{"compound": "CCC(=O)c1cc(C(=O)C(=S)SC)cc(C(=O)C(=S)SC)c1", "recorded metric": "growth inhibition", "reading unit": "%", "val": 42}
{"compound": "CC12C(=O)OC(=O)C(c3ccccc31)c1ccccc12", "recorded metric": "growth inhibition", "reading unit": "%", "val": 58}
{"compound": "COc1cc(C2c3cc4c(cc3OC(OC(C)=O)C2C)OCO4)cc(OC)c1OC (stereo unspecified)", "recorded metric": "growth inhibition", "reading unit": "%", "val": -4}
{"compound": "CCOC1=C/C(=N\\Nc2ccc([N+](=O)[O-])cc2)CCC1", "recorded metric": "growth inhibition", "reading unit": "%", "val": 21}
{"compound": "c1ccc2cc(NCNc3ccc4ccccc4c3)ccc2c1", "recorded metric": "growth inhibition", "reading unit": "%", "val": 12}
